system: human integrin αvβ5 (Homo sapiens, UniProt P06756+P18084)
Sequence (P06756 31-1048): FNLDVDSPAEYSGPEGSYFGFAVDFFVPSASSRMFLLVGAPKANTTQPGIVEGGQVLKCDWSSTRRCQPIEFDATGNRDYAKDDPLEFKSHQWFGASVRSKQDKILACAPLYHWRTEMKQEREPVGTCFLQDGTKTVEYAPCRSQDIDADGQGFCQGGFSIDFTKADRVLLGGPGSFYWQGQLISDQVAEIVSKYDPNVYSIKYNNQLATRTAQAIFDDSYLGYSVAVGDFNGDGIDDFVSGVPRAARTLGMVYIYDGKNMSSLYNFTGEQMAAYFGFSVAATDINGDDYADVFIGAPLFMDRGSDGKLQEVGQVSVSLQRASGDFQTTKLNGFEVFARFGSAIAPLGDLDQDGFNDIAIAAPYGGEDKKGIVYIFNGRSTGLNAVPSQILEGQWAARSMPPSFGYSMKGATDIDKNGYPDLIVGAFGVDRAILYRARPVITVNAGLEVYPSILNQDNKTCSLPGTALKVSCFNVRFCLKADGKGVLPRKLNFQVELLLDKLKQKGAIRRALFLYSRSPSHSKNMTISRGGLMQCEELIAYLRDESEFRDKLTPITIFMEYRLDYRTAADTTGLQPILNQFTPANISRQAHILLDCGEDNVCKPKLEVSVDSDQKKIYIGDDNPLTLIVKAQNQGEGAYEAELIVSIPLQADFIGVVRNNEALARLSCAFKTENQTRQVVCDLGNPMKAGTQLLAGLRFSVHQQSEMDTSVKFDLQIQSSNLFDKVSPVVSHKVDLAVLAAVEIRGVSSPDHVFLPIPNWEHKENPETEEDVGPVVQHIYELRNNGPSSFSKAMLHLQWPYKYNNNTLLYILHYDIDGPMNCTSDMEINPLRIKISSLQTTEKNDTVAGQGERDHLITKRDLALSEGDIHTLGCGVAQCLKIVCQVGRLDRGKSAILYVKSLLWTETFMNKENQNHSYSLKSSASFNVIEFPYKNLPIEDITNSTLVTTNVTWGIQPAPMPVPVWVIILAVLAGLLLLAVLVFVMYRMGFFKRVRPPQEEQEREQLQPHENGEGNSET
Sequence (P18084 24-799): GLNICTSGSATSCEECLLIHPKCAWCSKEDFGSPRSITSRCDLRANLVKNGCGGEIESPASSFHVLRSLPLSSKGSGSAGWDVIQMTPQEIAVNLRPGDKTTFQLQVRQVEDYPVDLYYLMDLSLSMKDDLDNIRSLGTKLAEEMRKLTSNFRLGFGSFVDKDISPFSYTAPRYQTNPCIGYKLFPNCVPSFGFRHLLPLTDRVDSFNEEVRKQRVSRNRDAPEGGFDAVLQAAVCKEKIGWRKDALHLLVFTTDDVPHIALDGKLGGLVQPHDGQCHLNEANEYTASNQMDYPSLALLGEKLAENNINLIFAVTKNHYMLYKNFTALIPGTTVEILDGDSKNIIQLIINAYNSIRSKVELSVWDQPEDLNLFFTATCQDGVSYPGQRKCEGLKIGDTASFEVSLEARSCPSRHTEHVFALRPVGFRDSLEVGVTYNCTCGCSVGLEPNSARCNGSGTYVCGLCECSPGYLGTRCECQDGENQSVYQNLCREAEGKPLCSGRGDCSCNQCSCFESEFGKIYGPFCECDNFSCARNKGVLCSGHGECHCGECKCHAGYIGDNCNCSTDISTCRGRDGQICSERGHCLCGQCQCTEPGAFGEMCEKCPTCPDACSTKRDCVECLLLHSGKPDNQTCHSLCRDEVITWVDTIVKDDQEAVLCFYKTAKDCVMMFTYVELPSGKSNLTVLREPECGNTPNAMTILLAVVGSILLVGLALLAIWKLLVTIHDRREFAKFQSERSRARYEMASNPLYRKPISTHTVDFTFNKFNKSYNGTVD
measurementProtocol: Evaluation of integrin binding property (surface plasmon resonance, Biacore 3000, immobilized cyclic peptide)
settings: surface plasmon resonance, immobilized cyclic peptide, human integrin αvβ5; read-out: Binding activity (integrin binding property, dissociation constant rank)
Starred links: 1 amine or outer side, 2 acyl side, 3 side chain; linkers in the order of their positions; H or OH if unused. Positions of bridges follow the written chain, without caps; N, C: chain ends. Non-standard residues stand in square brackets, D forms with d. Residues, ends and D or L forms follow the SMILES beside them. hCys = N[C@@H](CCS)C(=O)O; Dab = NCC[C@H](N)C(=O)O; X1 = O=C(C[*:2])[*:1]; X2 = O=C(C[*:1])[*:2]
measuredProperty: Kd

- compound: "CC[C@H](C)[C@@H]1NC(=O)[C@@H](NC(=O)CNC(=O)[C@H](CCCCN)NC(=O)[C@H](CCCCN)NC(=O)[C@@H](N)CCCCN)CCSCC(=O)NCCCC[C@@H](C(=O)N[C@@H](C)C(=O)O)NC(=O)[C@H](CCCNC(=N)N)NC(=O)[C@H](Cc2ccccc2)NC(=O)[C@H]([C@@H](C)O)NC(=O)[C@H](CC(=O)O)NC(=O)CNC(=O)[C@H](CCCNC(=N)N)NC(=O)[C@@H]2CCCN2C1=O [Cyclic peptide 116, KKKG-(Hcy)-IPRGDTFR(Lys(acetyl))A] (H-KKKG[hCys]IPRGDTFRKA-OH; linker 5-14 via X2)"
  system: "human integrin αvβ5 (Homo sapiens, UniProt P06756+P18084)"
  measuredProperty: "Kd"
  result: "< 0.05 µM"

input: Could you share which Kd value was measured for CC[C@H](C)[C@@H]1NC(=O)[C@@H](NC(=O)CNC(=O)[C@H](CCCCN)NC(=O)[C@H](CCCCN)NC(=O)[C@@H](N)CCCCN)CCNC(=O)CSCC[C@@H](C(=O)N[C@@H](C)C(=O)O)NC(=O)[C@H](CCCNC(=N)N)NC(=O)[C@H](Cc2ccccc2)NC(=O)[C@H]([C@@H](C)O)NC(=O)[C@H](CC(=O)O)NC(=O)CNC(=O)[C@H](CCCNC(=N)N)NC(=O)[C@@H]2CCCN2C1=O [Cyclic peptide 118, KKKG(Dab(acetyl))IPRGDTFR-(Hcy)-A] (H-KKKG[Dab]IPRGDTFR[hCys]A-OH; linker 5-14 via X1) ?
output: < 0.05 µM

----------
system: human integrin αvβ5 (Homo sapiens, UniProt P06756+P18084)
measurementProtocol: Evaluation of integrin binding property (surface plasmon resonance, Biacore 3000, immobilized cyclic peptide)
settings: SPR, 25° C., HEPES buffer with 5 mM magnesium chloride, integrin 30-1,000 nM; read-out: Performance evaluation: Binding activity (dissociation constant between the cyclic peptide and human integrin αvβ5)
Starred links: 1 amine or outer side, 2 acyl side, 3 side chain; linkers in the order of their positions; H or OH if unused. Positions of bridges follow the written chain, without caps; N, C: chain ends. Non-standard residues stand in square brackets, D forms with d. Residues, ends and D or L forms follow the SMILES beside them. hCys = N[C@@H](CCS)C(=O)O; Dab = NCC[C@H](N)C(=O)O; X2 = O=C(C[*:1])[*:2]
measuredProperty: Kd

- molecule: "CC[C@H](C)[C@@H]1NC(=O)[C@@H](NC(=O)[C@H](C)NC(=O)[C@H](CCCCN)NC(=O)[C@H](CCCCN)NC(=O)[C@@H](N)CCCCN)CCSCC(=O)NCC[C@@H](C(=O)NCC(=O)O)NC(=O)[C@H](C)NC(=O)[C@H](Cc2ccccc2)NC(=O)[C@H](CO)NC(=O)[C@H](CC(=O)O)NC(=O)CNC(=O)[C@H](CCCNC(=N)N)NC(=O)[C@@H]2CCCN2C1=O [Cyclic peptide 93, KKKA-(Hcy)-IPRGDSFA(Dab(acetyl))G] (H-KKKA[hCys]IPRGDSFA[Dab]G-OH; linker 5-14 via X2)"
  Kd: "< 50 nM"

Okay, next one:
input: Kd for C[C@H](NC(=O)[C@H](CCCCN)NC(=O)[C@H](CCCCN)NC(=O)[C@@H](N)CCCCN)C(=O)N[C@H]1CCSCC(=O)NCC[C@@H](C(=O)N[C@@H](CCC(=O)O)C(=O)O)NC(=O)[C@H](CCCNC(=N)N)NC(=O)[C@H](Cc2ccc(O)cc2)NC(=O)[C@H](CC(N)=O)NC(=O)[C@H](CC(=O)O)NC(=O)CNC(=O)[C@H](CCCNC(=N)N)NC(=O)[C@@H]2CCCN2C(=O)[C@H](CCC(=O)O)NC1=O [Cyclic peptide 43, KKKA-(Hcy)-EPRGDNYR(Dab(acetyl))E] (H-KKKA[hCys]EPRGDNYR[Dab]E-OH; linker 5-14 via X2) ?
output: 50 to 100 nM

Data origin: patent US12673975B2
